# measured_on: mouse CD38 (Mus musculus, UniProt P56528)
# protocol_text: mouse recombinant CD38 enzyme assay (hydrolysis of NAD+)
# measurement_setup: read-out: mCD38 BioChem IC50
readout_label: IC50 (nM)

[
  {
    "smiles": "Cn1cncc1-c1nc(C(=O)NC2CCC(F)(F)CC2)cc(C2CCC2)n1",
    "unit_descriptor": "nM",
    "IC50": 2
  }
]

(P) O=C(Nc1cccnc1)c1nccc(-n2ccnc2)n1
(Q) Cn1cncc1-c1nc(C(=O)Nc2ccc(C(F)F)nc2)cc(C2CCC2)n1
// pick larger IC50 from pair: P vs Q // caller expects the label of the chosen entry
P

----------
# measured_on: mouse CD38 (Mus musculus)
# Sequence (P56528 1-304): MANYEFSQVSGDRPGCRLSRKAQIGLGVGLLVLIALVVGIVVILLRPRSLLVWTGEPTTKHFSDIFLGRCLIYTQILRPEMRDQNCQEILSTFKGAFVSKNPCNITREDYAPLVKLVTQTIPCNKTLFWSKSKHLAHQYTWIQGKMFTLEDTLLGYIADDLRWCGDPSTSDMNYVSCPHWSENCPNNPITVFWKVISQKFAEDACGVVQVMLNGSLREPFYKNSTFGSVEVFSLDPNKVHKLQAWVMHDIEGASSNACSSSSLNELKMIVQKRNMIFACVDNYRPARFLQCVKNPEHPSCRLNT
# protocol_text: mouse recombinant CD38 enzyme assay (hydrolysis of NAD+)
# measurement_setup: read-out: mCD38 BioChem IC50
pIC50: −log10 of the molar value.
readout_label: pIC50

A selection of reference data follows.
[
  {
    "smiles": "Cn1cncc1-c1cncc(C(=O)NC2CC3(C2)CC(F)(F)C3)n1",
    "measured_on": "mouse CD38 (Mus musculus)",
    "readout_label": "pIC50",
    "numeric_value": 7.62
  },
  {
    "smiles": "CO[C@H]1CC[C@H](NC(=O)c2cc(C)cc(-c3cncn3C)n2)CC1",
    "measured_on": "mouse CD38 (Mus musculus)",
    "readout_label": "pIC50",
    "numeric_value": 8.00
  }
]

(A) Cn1cncc1-c1nc(C(=O)N[C@H]2CC[C@H](C)CC2)cc(C(F)(F)F)n1
(B) O=C(NC1CCC(F)(F)CC1)c1cc(C2CCC2)nc(-n2ccnc2)n1
// pick larger pIC50 from pair: A vs B // caller expects the label of the chosen entry
A
(A: 8.70, B: 7.85)

----------
# measured_on: human CD38 (Homo sapiens)
# Sequence (P28907 whole entry): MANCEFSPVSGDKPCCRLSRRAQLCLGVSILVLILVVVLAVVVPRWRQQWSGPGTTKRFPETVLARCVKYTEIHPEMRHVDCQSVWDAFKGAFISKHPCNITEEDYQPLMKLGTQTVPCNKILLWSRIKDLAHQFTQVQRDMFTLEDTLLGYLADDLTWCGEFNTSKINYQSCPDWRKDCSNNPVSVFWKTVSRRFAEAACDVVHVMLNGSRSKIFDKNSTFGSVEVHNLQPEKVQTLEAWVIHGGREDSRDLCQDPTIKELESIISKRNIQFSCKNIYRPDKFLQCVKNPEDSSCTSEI
# protocol_text: human recombinant CD38 enzyme assay (hydrolysis of NAD+)
# measurement_setup: human recombinant CD38, 0.4 nM enzyme, 62.5 μM NAD+; read-out: hCD38 BioChem IC50
readout_label: IC50 (nM)

[
  {
    "smiles": "Cc1cc(C(=O)N[C@H]2CC[C@H](C)CC2)nc(-n2ccnc2)n1",
    "IC50 / nM": 10
  },
  {
    "smiles": "O=C(N[C@H]1CCN(c2ccccc2)C1)c1nccc(-n2ccnc2)n1",
    "IC50 / nM": 233
  },
  {
    "smiles": "Cn1cncc1-c1nc(C(=O)Nc2ccc(C(F)(F)F)nc2)cc(C2CCOCC2)n1",
    "IC50 / nM": 3.8
  },
  {
    "smiles": "Cn1cncc1-c1nc(C(=O)Nc2ccc(C(F)F)nc2)cc(C2CCC(F)(F)CC2)n1",
    "IC50 / nM": 3.1
  },
  {
    "smiles": "O=C(Nc1ccc(C(F)F)nc1)c1nccc(-c2cncs2)n1",
    "IC50 / nM": 1060
  },
  {
    "smiles": "O=C(Nc1cccnc1)c1cccc(-c2cncs2)n1",
    "IC50 / nM": 2110
  }
]

(1) Cn1cncc1-c1ccnc(C(=O)N[C@H]2C[C@@H](c3ccc(C(F)(F)F)nc3)C2)n1
(2) CO[C@H]1CC[C@H](NC(=O)c2cc(C(C)(C)O)nc(-c3cncn3C)n2)CC1
(3) Cn1cncc1-c1nc(C(=O)NC2CC3(COC3)C2)cc(C2CCC(F)(F)CC2)n1
Put these in order: smallest IC50 first, largest last. Please respond by ranking the labels in the order requested.
3, 2, 1
(3: 8.1 nM, 2: 57 nM, 1: 404 nM)

(1) O=C(Nc1ccc(C(F)(F)F)nc1)c1cc(-n2ccnc2)ccn1
(2) Cn1cncc1-c1nc(C(=O)NC2CCC(F)(F)CC2)cc(C2CCOCC2)n1
(3) O=C(Nc1ccncc1)c1cc(-n2ccnc2)ccn1
(4) COC(=O)N1CC2(CC(NC(=O)c3cccc(-n4ccnc4)n3)C2)C1
Order field: IC50 | Direction: descending (largest first) Please respond by ranking the labels in the order requested.
3, 1, 4, 2

(1) O=C(Nc1ccccn1)c1cc(-n2ccnc2)ccn1
(2) Cn1cncc1-c1ccnc(C(=O)N[C@H]2C[C@H](c3ccc(C(F)(F)F)nc3)C2)n1
// pick larger IC50 from pair: 1 vs 2 // caller expects the label of the chosen entry
1
(1: 1130 nM, 2: 71.9 nM)

(a) O=C(N[C@H]1CC[C@H](O)CC1)c1nccc(-n2ccnc2)n1
(b) CCO[C@H]1CC[C@H](NC(=O)c2nccc(-c3cncn3C)n2)CC1
(c) COCCO[C@H]1CC[C@H](NC(=O)c2cccc(-c3cncn3C)n2)CC1
Order field: IC50 | Direction: descending (largest first) Please respond by ranking the labels in the order requested.
c, a, b

----------
# measured_on: human CD38 (Homo sapiens)
# protocol_text: human recombinant CD38 enzyme assay (hydrolysis of NAD+)
# measurement_setup: human recombinant CD38, 0.4 nM enzyme, 62.5 μM NAD+; read-out: hCD38 BioChem IC50
readout_label: IC50 (µM)

A selection of reference data follows.
[
  {
    "smiles": "O=C(N[C@H]1CC[C@H](C(F)F)CC1)c1ccnc(-c2cncs2)n1",
    "measured_on": "human CD38 (Homo sapiens)",
    "unit_descriptor": "µM",
    "IC50": 0.562
  },
  {
    "smiles": "CC(C)(O)c1ccc(NC(=O)c2nccc(-n3ccnc3)n2)cn1",
    "measured_on": "human CD38 (Homo sapiens)",
    "unit_descriptor": "µM",
    "IC50": 0.0119
  },
  {
    "smiles": "Cn1cncc1-c1nc(C(=O)N[C@H]2CC[C@H](OC(F)F)CC2)cc(C2(C)COC2)n1",
    "measured_on": "human CD38 (Homo sapiens)",
    "unit_descriptor": "µM",
    "IC50": 0.0135
  }
]

(P) CO[C@H]1CC[C@H](NC(=O)c2cc(C)cc(-c3cncs3)n2)CC1
(Q) O=C(NC1CCC(F)(F)CC1)c1cc(C2CCC2)nc(-n2ccnc2)n1
// pick larger IC50 from pair: P vs Q // caller expects the label of the chosen entry
P
(P: 1.73 µM, Q: 0.03 µM)

----------
# measured_on: endogenous CD38 in HL60 cells (Homo sapiens)
# Construct: endogenous in cells
# protocol_text: cellular CD38 assay in HL60 cells (cellular NAD levels)
# measurement_setup: all-trans retinoic acid, 24 hours, read-out: hCD38 HL60 ATRA NAD Cell Diaphorase IC50
readout_label: IC50 (nM)

A selection of reference data follows.
[
  {
    "smiles": "CO[C@H]1CC[C@H](NC(=O)c2cc(C(F)(F)F)cc(-n3ccnc3)n2)CC1",
    "readout_label": "IC50",
    "numeric_value": 4810
  },
  {
    "smiles": "O=C(N[C@H]1CC[C@H](C(F)F)CC1)c1cc(C(F)(F)F)nc(-n2ccnc2)n1",
    "readout_label": "IC50",
    "numeric_value": 3010
  },
  {
    "smiles": "O=C(NC12CC(C1)C2)c1cccc(-n2ccnc2)n1",
    "readout_label": "IC50",
    "numeric_value": 7390
  },
  {
    "smiles": "Cn1cncc1-c1ccnc(C(=O)N[C@H]2CC[C@H](CO)CC2)n1",
    "readout_label": "IC50",
    "numeric_value": 2280
  },
  {
    "smiles": "Cn1cncc1-c1cncc(C(=O)N[C@H]2CC[C@H](C(F)F)CC2)n1",
    "readout_label": "IC50",
    "numeric_value": 1180
  }
]

(a) COc1ncc(-c2cncn2C)nc1C(=O)Nc1ccc(C(F)(F)F)nc1
(b) Cc1cc(-n2ccnc2)nc(C(=O)Nc2ccc(C(F)F)nc2)n1
Among a and b , whose measured IC50 is the smaller figure? // caller expects the label of the chosen entry
b

(P) O=C(Nc1ccc(F)cc1)c1cccc(-n2ccnc2)n1
(Q) O=C(N[C@H]1CC[C@H](O)CC1)c1nccc(-n2ccnc2)n1
// pick larger IC50 from pair: P vs Q // caller expects the label of the chosen entry
Q

These measurements were taken from patent US20230116972A1.
